# Experimental System: HLA-A*11:01
# Procedure Summary: IEDB peptide-MHC binding, purified MHC/competitive/fluorescence; bounds were set here for any values at or beyond the usual limits of such assays
# Condition Label: source organism: Zaire ebolavirus
Below: a set of entries, each annotated with reported IC50.
Endpoint Label: IC50

>>> df
   entry_sequence  endpoint_label  recorded_result
0       EESASSGKL            IC50         ≥ 214 µM
1       MGVTGILQL            IC50        ≥ 73.8 µM
2       KACLEKVQR            IC50         ≥ 188 µM
3       NRSTKGGQQ            IC50         ≥ 140 µM

---

# Experimental System: HLA-A*24:02
# Procedure Summary: IEDB peptide-MHC binding, purified MHC/competitive/fluorescence; bounds were set here for any values at or beyond the usual limits of such assays
# Condition Label: source organism: Zaire ebolavirus
pIC50: −log10 of the molar value.
Endpoint Label: pIC50

In [3]: df
Out[3]:
   entry_sequence  recorded_result
0       DFFSSHPLR           ≤ 3.90
1       MGVTGILQL           ≤ 4.07
2       NLSGVNNLE           ≤ 4.06
3       RATTELRTF             6.22

---

Below: a set of entries, each annotated with reported Kd.
# Experimental System: HLA-B*40:01
# Procedure Summary: IEDB peptide-MHC binding, purified MHC/direct/fluorescence; filed as Kd, often an IC50 or EC50 that approximates it; bounds were set here for any values at or beyond the usual limits of such assays
# Condition Label: source organism: Mycobacterium tuberculosis
Endpoint Label: Kd

   entry_sequence  recorded_result
0       GPAGYTAAL          ≥ 20 µM
1       AVFLSYIGY          ≥ 20 µM
2       ATADLELAY          ≥ 20 µM

---

Below: a set of entries, each annotated with reported Kd.
# Experimental System: HLA-A*11:01
# Procedure Summary: IEDB peptide-MHC binding, purified MHC/competitive/radioactivity; filed as Kd, often an IC50 or EC50 that approximates it; bounds were set here for any values at or beyond the usual limits of such assays
# Condition Label: source organism: Vaccinia virus WR
Endpoint Label: Kd (nM)

    entry_sequence  qualifier_operator  recorded_result
 0       EFVMCLEAK                   =              965
 1      DILTYNKTSK                   ≥            21100
 2       LSKWHTSAR                   =             3430
 3      PFTQHLLNIR                   =             2890
 4       KVLAARLKR                   =              158
 5      KMAVEVGSIR                   ≥            21100
 6       ESNIEIMDK                   =            10800
 7      LIHDNIMYTY                   =              238
 8       TFKIDAVRY                   =            18900
 9      DVHPGEPVVK                   ≥            23700
10      AISAVYFKAK                   =               26
11      DFIRRKYLIY                   ≥            20200
12       TSKTTILSK                   =              403
13       ELYVSSSYK                   =             12.4
14      SLIKFISDNK                   =             23.7
15       EIKAEMQLK                   =             1670
16       IIGHIGHHY                   =             4620
17      GMLIYSMWGK                   =             17.5
18       VSAQNISFK                   =             9.62
19      YTCEDNTGIK                   =             1060
20       DLTTMPTYK                   =              293
21       QQLEDIFMR                   =            13400
22      LLYAAEMVEY                   =            0.576
23      NMKQCTNDIY                   =            16400
24      YFSFKKCLVY                   =              107
